FYI, the data here is from patent US11612606B2.

Target: HPK full length, T165E S171E (Homo sapiens (Human), UniProt Q92918, S171E/T165E)
Sequence (Q92918 whole entry T165E/S171E, looked up): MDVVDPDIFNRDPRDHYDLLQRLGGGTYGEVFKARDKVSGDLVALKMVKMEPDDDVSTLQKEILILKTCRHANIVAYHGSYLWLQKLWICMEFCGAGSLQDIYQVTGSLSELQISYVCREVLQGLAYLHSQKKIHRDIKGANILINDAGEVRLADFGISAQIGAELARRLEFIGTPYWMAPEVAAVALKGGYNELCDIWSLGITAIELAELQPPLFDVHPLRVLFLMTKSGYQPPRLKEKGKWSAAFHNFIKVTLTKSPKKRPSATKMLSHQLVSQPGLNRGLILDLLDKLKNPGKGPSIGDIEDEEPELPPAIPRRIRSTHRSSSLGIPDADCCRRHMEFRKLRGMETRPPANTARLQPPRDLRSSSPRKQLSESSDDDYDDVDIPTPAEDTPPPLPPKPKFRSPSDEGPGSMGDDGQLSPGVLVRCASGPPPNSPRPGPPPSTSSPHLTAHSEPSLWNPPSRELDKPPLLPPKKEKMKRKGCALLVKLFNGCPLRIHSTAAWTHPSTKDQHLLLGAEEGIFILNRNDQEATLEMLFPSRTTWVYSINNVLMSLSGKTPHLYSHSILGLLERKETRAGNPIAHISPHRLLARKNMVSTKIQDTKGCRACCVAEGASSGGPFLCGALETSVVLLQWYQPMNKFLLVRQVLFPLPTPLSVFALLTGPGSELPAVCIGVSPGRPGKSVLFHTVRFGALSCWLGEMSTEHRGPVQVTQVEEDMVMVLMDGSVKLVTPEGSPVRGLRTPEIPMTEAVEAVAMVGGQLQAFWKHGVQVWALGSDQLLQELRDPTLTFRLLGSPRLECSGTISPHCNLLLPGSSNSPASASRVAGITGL
Experiment: HPK1-FL HTRF enzymatic assay ("HTRF")
Assay type: biochemical
Details: ATP 1 mM, read-out: HPK1 Ki
Where a name gives a salt, the structure may show the parent alone.
attribute.measured: pKi
The read-out pKi is expressed as -log10 of concentration in moles per litre.

# query: pKi of entry Cc1c(-c2cc3cc(NC(=O)O[C@@H]4CCOC4)ncc3c(N)c2F)cnc2c1NC[C@@H](F)O2 (single isomer, unassigned) [Compound 518a]
10.16

# query: pKi of entry Cc1c(-c2cc3cc(NC(=O)O[C@H]4C[C@@H](N5CC(F)(F)C5)C4)ncc3c(N)c2F)cnc2c1NCCO2 [Compound 513a]
10.66

# query: pKi of entry `Cc1c(-c2cc3cc(NC(=O)OC4CN(C(C)C)C4)ncc3c(N)c2F)cnc2c1NCCO2`
10.21

# query: pKi of entry Cc1c(-c2cc3cc(NC(=O)O[C@@H]4CC[C@](C)(O)C4)ncc3c(N)c2F)cnc2c1NCCO2 (single isomer, unassigned) [Compound 533d, hydrochloride]
10.82

# query: pKi of entry Cc1c(-c2cc3cc(NC(=O)O[C@@H]4CCN(C)C4)ncc3c(N)c2F)cnc2c1NCCO2 [Compound 411b]
9.70

Next:
# query: pKi of entry `CC(=O)N1CC(OC(=O)Nc2cc3cc(-c4cnc5c(c4C)NCCC5)c(F)c(N)c3cn2)C1`
10.55

# query: pKi of entry Cc1c(-c2cc3cc(NC(=O)O[C@@H]4C[C@](C)(O)[C@@H]4C)ncc3c(N)c2F)cnc2c1NCCO2 [Compound 526a]
10.82

# query: pKi of entry Cc1c(N)cncc1-c1cc2cc(NC(=O)O[C@@H]3COC[C@H]3C)ncc2c(N)c1F (single isomer, unassigned) [Compound 544b]
8.57

----------
Assay: Permeability assay in gMDCKI cells
Assay type: in vitro ADME, canine
Conditions: dog, MDCK, apical-to-basolateral, 2-hour incubation, read-out: MDCK AB Papp
attribute.measured: Papp at 2 h, 10 μM (×10⁻⁶ cm/s)
Response body: numeric value in ×10⁻⁶ cm/s, unit text excluded.

# query: Papp at 2 h, 10 μM of entry Cc1c(-c2cc3cc(NC(=O)O[C@H]4CCO[C@H]4C)ncc3c(N)c2F)cnc2c1NCCO2 (single isomer, unassigned) [Compound 510c]
20

Next:
# query: Papp at 2 h, 10 μM of entry Cc1c(-c2cc3cc(NC(=O)O[C@@H]4CCC[C@H]4C#N)ncc3c(N)c2F)cnc2c1NCCO2 (single isomer, unassigned) [Compound 482a]
15

----------
Biological target: HPK full length, T165E S171E (Homo sapiens (Human), UniProt Q92918, S171E/T165E)
Test: HPK1-FL HTRF enzymatic assay ("HTRF")
Format: biochemical
Conditions: ATP 1 mM, read-out: HPK1 Ki
attribute.measured: pKi
The read-out pKi is expressed as -log10 of concentration in moles per litre.

# query: pKi of entry Cc1c(-c2cc3cc(NC(=O)O[C@H]4CCCNC4)ncc3c(N)c2F)cnc2c1NCCO2 (single isomer, unassigned) [Compound 408a]
10.05

Okay, next one:
# query: pKi of entry Cc1c(-c2cc3cc(NC(=O)O[C@H]4CCC5(CCN(C6COC6)CC5)C4)ncc3c(N)c2F)cnc2c1NCCO2 (single isomer, unassigned) [Compound 511b]
10.77
